Cited source for all entries: patent US20200038513A1

# METHOD SUMMARY: Pharmacokinetics of intraperitoneal or intravenous injection in CD1 mice
# Assay type: in vivo
# CONDITION NOTES: male, CD1, mouse, plasma, iv, 1 mg/kg, IV 1.0 mg/kg, CD1 mice plasma, 0.033 h; read-out: Conc. (ng/mL) Mouse 3
RECORDED METRIC: concentration at 0.033 h (ng/mL)

[a] Cc1ncsc1-c1ccc(CNC(=O)[C@@H]2C[C@@H](O)CN2C(=O)[C@@H](NC(=O)COCCCOc2ccc(Nc3ncc(C(F)(F)F)c(NCc4cccc(N(C)S(C)(=O)=O)c4)n3)cc2)C(C)(C)C)cc1
[b] Cc1ncsc1-c1ccc(CNC(=O)[C@@H]2C[C@@H](O)CN2C(=O)[C@@H](NC(=O)CCOCCCOc2ccc(Nc3ncc(C(F)(F)F)c(NCc4cccc(N(C)S(C)(=O)=O)c4)n3)cc2)C(C)(C)C)cc1
[c] CN(c1cccc(CNc2nc(Nc3ccc(OCCCOCCC(=O)NCCOc4cccc5c4C(=O)N(C4CCC(=O)NC4=O)C5=O)cc3)ncc2C(F)(F)F)c1)S(C)(=O)=O (centres unmarked)
Order them by concentration at 0.033 h, ascending: the compounds above. Respond with the label ranking, as requested.
c, a, b
(c: 34.3 ng/mL, a: 2310 ng/mL, b: 4020 ng/mL)

====

# METHOD SUMMARY: Pharmacokinetics of intraperitoneal or intravenous injection in CD1 mice
# Format: in vivo
# CONDITION NOTES: male, CD1, mouse, plasma, iv, 1 mg/kg, IV 1.0 mg/kg, CD1 mice plasma, 0.5 h; read-out: Conc. (ng/mL) Mouse 3
RECORDED METRIC: concentration at 0.5 h (ng/mL)

Cc1ncsc1-c1ccc(CNC(=O)[C@@H]2C[C@@H](O)CN2C(=O)[C@@H](NC(=O)CCOCCCOc2ccc(Nc3ncc(C(F)(F)F)c(NCc4cccc(N(C)S(C)(=O)=O)c4)n3)cc2)C(C)(C)C)cc1    135
Cc1ncsc1-c1ccc(CNC(=O)[C@@H]2C[C@@H](O)CN2C(=O)[C@@H](NC(=O)CCOCCOc2ccc(Nc3ncc(C(F)(F)F)c(NCc4cccc(N(C)S(C)(=O)=O)c4)n3)cc2)C(C)(C)C)cc1    37.6

[I] Cc1ncsc1-c1ccc(CNC(=O)[C@@H]2C[C@@H](O)CN2C(=O)[C@@H](NC(=O)COCCCOc2ccc(Nc3ncc(C(F)(F)F)c(NCc4cccc(N(C)S(C)(=O)=O)c4)n3)cc2)C(C)(C)C)cc1
[II] Cc1ncsc1-c1ccc(CNC(=O)[C@@H]2C[C@@H](O)CN2C(=O)[C@@H](NC(=O)COCCOc2ccc(Nc3ncc(C(F)(F)F)c(NCc4cccc(N(C)S(C)(=O)=O)c4)n3)cc2)C(C)(C)C)cc1
// which entry has the larger concentration at 0.5 h value, I or II ? Respond using the label that marks the chosen record.
I
(I: 27.7 ng/mL, II: 18 ng/mL)

====

# METHOD SUMMARY: Pharmacokinetics of intraperitoneal or intravenous injection in CD1 mice
# Assay type: in vivo
# CONDITION NOTES: male, CD1, mouse, plasma, iv, 1 mg/kg; read-out: AUClast (h * ng/mL) IV
RECORDED METRIC: AUC(0-t) (ng·h/mL)

Cc1ncsc1-c1ccc(CNC(=O)[C@@H]2C[C@@H](O)CN2C(=O)[C@@H](NC(=O)CCOCCOc2ccc(Nc3ncc(C(F)(F)F)c(NCc4cccc(N(C)S(C)(=O)=O)c4)n3)cc2)C(C)(C)C)cc1    264

[A] Cc1ncsc1-c1ccc(CNC(=O)[C@@H]2C[C@@H](O)CN2C(=O)[C@@H](NC(=O)CCOCCCOc2ccc(Nc3ncc(C(F)(F)F)c(NCc4cccc(N(C)S(C)(=O)=O)c4)n3)cc2)C(C)(C)C)cc1
[B] Cc1ncsc1-c1ccc(CNC(=O)[C@@H]2C[C@@H](O)CN2C(=O)[C@@H](NC(=O)COCCOc2ccc(Nc3ncc(C(F)(F)F)c(NCc4cccc(N(C)S(C)(=O)=O)c4)n3)cc2)C(C)(C)C)cc1
[C] Cc1ncsc1-c1ccc(CNC(=O)[C@@H]2C[C@@H](O)CN2C(=O)[C@@H](NC(=O)COCCCOc2ccc(Nc3ncc(C(F)(F)F)c(NCc4cccc(N(C)S(C)(=O)=O)c4)n3)cc2)C(C)(C)C)cc1
Rank items: key AUC(0-t), increasing. Labels, requested order.
B, C, A
